Test system: UO-31
Experimental details: NCI one-dose SRB growth inhibition
Format: cell-based
Test conditions: Homo sapiens, Renal Cancer, 48 h, read-out: GI% UO-31
Measured property: inhibition at 10 µM

# Cpd smiles, inhibition at 10 µM
records = [
    ("Cc1nc(-c2cccs2)ccc1NC(=O)Nc1ccc(Cl)cc1", "< 10%"),
    ("CCOC(=O)c1ccc(NC(=O)Nc2ccc(-c3ccc(F)cc3)nc2C)cc1", "< 10%"),
    ("CCOC(=O)c1ccc(NC(=O)Nc2ccc(-c3cccs3)nc2C)cc1", "< 10%"),
    ("Cc1nc(-c2ccc(F)cc2)ccc1NC(=O)Nc1ccc2c(c1)OCO2", "< 10%"),
    ("Cc1nc(-c2ccc(F)cc2)ccc1NC(=O)Nc1cccc(C(F)(F)F)c1", "15%"),
    ("Cc1nc(-c2cccs2)ccc1NC(=O)Nc1ccc(F)cc1", "13%"),
    ("COc1ccc(NC(=O)Nc2ccc(-c3ccc(Cl)cc3)nc2C)cc1", "< 10%"),
    ("Cc1nc(-c2ccc(Cl)cc2)ccc1NC(=O)Nc1ccc2c(c1)OCO2", "< 10%"),
]

--- query ---
For the compound Cc1nc(-c2ccc(Cl)cc2)ccc1NC(=O)Nc1cccc(C(F)(F)F)c1 , give its measured inhibition at 10 µM value. < 10%
